Observed MIC for Aspergillus niger, reported per entry below.

Here is how some molecules turned out for MIC.
Observed MIC, Aspergillus niger, CCn1c(C)cc(-c2ccccc2)c1C(=O)C(=O)Nc1ccc2c(c1)OCC1CN(c3ncc(F)cn3)CCN21 (centres unmarked) : 0.01 to 0.1 µg/mL

Observed MIC, Aspergillus niger, Cc1cc(C)nc(N2CCN3c4ccc(NC(=O)C(=O)c5c(-c6ccccc6)cc(C)n5C)cc4OCC3C2)c1 (centres unmarked) : < 0.01 µg/mL

Observed MIC, Aspergillus niger, Cc1cc(-c2ccccc2)c(C(=O)C(=O)Nc2cc3c(cc2F)N2CCN(c4ncc(F)cn4)CC2CO3)n1C (centres unmarked) : < 0.01 µg/mL

Observed MIC, Aspergillus niger, `Cc1cc(C)nc(N2CCN3c4ccc(NC(=O)C(=O)c5c(-c6ccccc6)cc(C)n5C)cc4OC[C@@H]3C2)c1` : < 0.01 µg/mL

Observed MIC, Aspergillus niger, Cc1cc(C)nc(N2CCN3c4ccc(NC(=O)C(=O)c5c(-c6ccccc6)cc(C)n5C)cc4N(C)CC3C2)c1 (centres unmarked) : 0.01 to 0.1 µg/mL

Next:
Observed MIC, Aspergillus niger, `Cc1cc(C)nc(N2CCN3c4ccc(NC(=O)C(=O)c5c(-c6ccccc6)cc(C)n5C)cc4OC[C@H]3C2)c1` : < 0.01 µg/mL

Observed MIC, Aspergillus niger, Cc1cc2c(cc1NC(=O)C(=O)c1c(-c3ccccc3)cc(C)n1C)OCC1CN(c3ncc(F)cn3)CCN21 (centres unmarked) : 0.01 to 0.1 µg/mL

Observed MIC, Aspergillus niger, CCC(C)n1ncn(-c2ccc(N3CCN(c4ccc(OCC5COC(Cn6cncn6)(c6ccc(Cl)cc6Cl)O5)cc4)CC3)cc2)c1=O (centres unmarked) [Itraconazole, reference compound] : > 0.1 µg/mL

* * *

Observed MIC for Aspergillus niger, reported per entry below.

Here is how some compounds turned out for MIC.
Per the record, Cc1cc(-c2ccccc2)c(C(=O)C(=O)Nc2ccc3c(c2)OCC2CN(c4ncc(F)cn4)CCN32)n1C (stereo not drawn) [Example 1] has MIC of < 0.01 µg/mL

Per the record, Cc1cc(-c2ccccc2)c(C(=O)C(=O)Nc2ccc3c(c2)OC[C@@H]2CN(c4ncc(F)cn4)CCN32)n1C [Example 1-A] has MIC of < 0.01 µg/mL

Per the record, Cc1cc(-c2ccccc2)c(C(=O)C(=O)Nc2ccc3c(c2)N(C)C[C@@H]2CN(c4ncc(F)cn4)CCN32)n1C [Example 12-A] has MIC of < 0.01 µg/mL

Per the record, Cc1cc(-c2ccccc2)c(C(=O)C(=O)Nc2ccc3c(c2)OC[C@H]2CN(c4ncc(F)cn4)CCN32)n1C [Example 1-B] has MIC of < 0.01 µg/mL

Per the record, Cc1cc(C)nc(N2CCN3c4ccc(NC(=O)C(=O)c5c(-c6ccccc6)cc(C)n5C)cc4N(C)C[C@H]3C2)c1 [Example 13-B] has MIC of 0.01 to 0.1 µg/mL

Next:
Per the record, Cc1cc(-c2ccccc2)c(C(=O)C(=O)Nc2ccc3c(c2)N(C)C[C@H]2CN(c4ncc(F)cn4)CCN32)n1C [Example 12-B] has MIC of < 0.01 µg/mL
